Assay: Phase 1b study in RYR1-Related Myopathy patients, plasma pharmacokinetics
Assay type: in vivo, human (RYR1-Related Myopathy patients)
Details: human, plasma, po, 120 mg, 120 mg oral daily for 28 days, Day 28, n 3, Median; read-out: Tmax
Observable: Tmax (h)
Express the result in h but write the number alone.

Could you tell me which Tmax is on file for COc1ccc2c(c1)CN(Cc1ccc(C(=O)O)cc1)CCS2.O=C(O)/C=C/C(=O)O [Compound I] ?
4

----------
Experiment: Phase 1b study in RYR1-Related Myopathy patients, plasma pharmacokinetics
Type: in vivo, human (RYR1-Related Myopathy patients)
Details: human, plasma, po, 120 mg, single oral 120 mg, Day 1, three subjects, Median; read-out: AUC0-24
Observable: AUC(0-t) (µg·h/mL)
Express the result in µg·h/mL but write the number alone.

Could you tell me which AUC(0-t) is on file for `COc1ccc2c(c1)CN(Cc1ccc(C(=O)O)cc1)CCS2.O=C(O)/C=C/C(=O)O` ?
175
